Numbers sourced from patent US20260125477A1.

systemTested: T1, human B7-H7/HHLA2 protein, with His tag (MALS verified) (human, UniProt Q9UM44 23-344, limits assumed)
T1 construct: Bought protein
T1 sequence (looked up): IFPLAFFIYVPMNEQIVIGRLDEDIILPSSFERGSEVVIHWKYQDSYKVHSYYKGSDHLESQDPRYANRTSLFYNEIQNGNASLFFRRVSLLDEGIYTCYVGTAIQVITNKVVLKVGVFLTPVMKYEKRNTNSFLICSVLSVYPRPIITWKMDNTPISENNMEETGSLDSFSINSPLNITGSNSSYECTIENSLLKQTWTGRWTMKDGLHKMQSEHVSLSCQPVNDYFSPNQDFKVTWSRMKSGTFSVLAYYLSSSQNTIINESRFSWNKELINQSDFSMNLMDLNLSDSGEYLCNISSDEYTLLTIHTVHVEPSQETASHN
protocolSummary: SPR (Biacore T200), antibody captured on Protein A chip, response at 200 nM antigen
valueType: Response (RU)
Respond with a number, then the unit of measure.

Challenge: Suppose we examine the binder 10D7 (antibody, human IgG1, kappa, V domains shown, also called 10D7-WT; Ab10D7) VH: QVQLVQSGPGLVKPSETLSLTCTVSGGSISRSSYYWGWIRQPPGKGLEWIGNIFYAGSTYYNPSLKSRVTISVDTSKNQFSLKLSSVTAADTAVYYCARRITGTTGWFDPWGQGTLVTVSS VL: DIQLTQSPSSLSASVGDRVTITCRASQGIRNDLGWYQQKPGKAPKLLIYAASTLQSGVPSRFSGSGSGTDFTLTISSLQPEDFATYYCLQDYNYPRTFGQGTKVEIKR ; what Response (RU) value has been reported?
Response given: 0.2 RU

Challenge: Suppose we examine the binder 10F5 (antibody, human IgG1, kappa, V domains shown, also called Ab10F5) VH: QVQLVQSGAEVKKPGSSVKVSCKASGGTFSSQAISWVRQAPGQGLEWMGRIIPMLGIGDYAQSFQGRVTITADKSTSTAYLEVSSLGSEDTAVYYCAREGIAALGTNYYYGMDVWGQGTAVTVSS VL: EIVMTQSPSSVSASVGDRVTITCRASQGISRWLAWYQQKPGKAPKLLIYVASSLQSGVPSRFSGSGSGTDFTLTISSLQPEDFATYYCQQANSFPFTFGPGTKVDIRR ; what Response (RU) value has been reported?
Response given: 1.7 RU

Challenge: Suppose we examine the binder 6B5 (antibody, human IgG1, kappa, V domains shown, also called 6B5-WT; Ab6B5) VH: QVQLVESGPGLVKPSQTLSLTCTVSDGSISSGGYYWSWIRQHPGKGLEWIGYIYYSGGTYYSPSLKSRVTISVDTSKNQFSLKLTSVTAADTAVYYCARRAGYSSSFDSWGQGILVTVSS VL: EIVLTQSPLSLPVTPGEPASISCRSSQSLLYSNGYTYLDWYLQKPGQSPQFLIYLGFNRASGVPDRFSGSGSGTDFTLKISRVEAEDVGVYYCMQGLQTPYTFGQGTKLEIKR ; what Response (RU) value has been reported?
Response given: 1.3 RU

Challenge: Suppose we examine the binder Enoblituzumab (antibody, human IgG1, kappa, V domains shown, Humanized anti-B7-H3 antibody of MacroGenics with optimised Fc, used as the positive control; also called AbEno; enoblituzumab-IgG1-Mut) VH: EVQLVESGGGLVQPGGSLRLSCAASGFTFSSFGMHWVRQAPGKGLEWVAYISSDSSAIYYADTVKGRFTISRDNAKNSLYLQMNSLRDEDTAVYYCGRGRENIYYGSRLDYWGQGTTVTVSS VL: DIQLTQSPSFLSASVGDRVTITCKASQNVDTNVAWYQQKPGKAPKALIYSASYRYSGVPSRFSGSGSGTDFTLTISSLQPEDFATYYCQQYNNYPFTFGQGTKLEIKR ; what Response (RU) value has been reported?
Response given: -1.3 RU
